- protocol-summary: Antiproliferative activity against HEK293T cells assessed as reduction in cell growth
- Assay type: toxicity, cell-based, HEK-293T
- assay-conditions: human
attribute-measured: pIC50
Please express pIC50 as -log10 of the molar concentration.

# return recorded pIC50 for entry COC(=O)c1ccc([C@H]2c3[nH]c4ccccc4c3C[C@H](C(=O)OC)N2C(=O)CCl)cc1 6.51
